Numbers sourced from ChEMBL document CHEMBL4393701.

Each entry below carries its recorded MBC.
Test system: Salmonella typhimurium
Assay: Bactericidal activity against Salmonella typhimurium ATCC 13311 incubated for 24 hrs followed by re-plating on tryptic soy broth
Type: functional, Salmonella enterica subsp. enterica serovar Typhimurium
Conditions: Salmonella enterica, ATCC 13311, 24 h
Quick reminder: number only, in µM, skip the unit.

COc1ccc2c(c1)-c1c(ssc1=S)C(C)(C)N2C(=O)CSc1nc2ccccc2s1 : 59.7
CC1(C)S[C@@H]2[C@H](NC(=O)[C@H](N)c3ccccc3)C(=O)N2[C@H]1C(=O)O [AMPICILLIN] : 380

Continue with the next compound.
Exercise: // returns reported MBC for input CN[C@@H]1[C@H](O[C@H]2[C@H](O[C@H]3[C@H](O)[C@@H](O)[C@H](N=C(N)N)[C@@H](O)[C@@H]3N=C(N)N)O[C@@H](C)[C@]2(O)C=O)O[C@@H](CO)[C@H](O)[C@H]1O [STREPTOMYCIN]
Solution: 86

###

Tested on: Micrococcus flavus
Test: Antibacterial activity against Micrococcus flavus ATCC 10240 after 24 hrs by iodonitrotetrazolium chloride dye based microdilution method
Assay type: functional
Conditions: ATCC 10240, 24 h
List of MIC values.
All answers are understood in µM, so give the number only.

Example compounds with recorded MIC:
CC1(C)S[C@@H]2[C@H](NC(=O)[C@H](N)c3ccccc3)C(=O)N2[C@H]1C(=O)O [AMPICILLIN] : 248
CC1(C)c2ssc(=S)c2-c2ccccc2N1C(=O)CSC1=NCCS1 : 106

Exercise: # input compound: COc1ccc2c(c1)-c1c(ssc1=S)C(C)(C)N2C(=O)CSc1nc2ccccc2s1 ; wanted: its MIC
Solution: 29.8

Exercise: What value of measured MIC is listed for CC1(C)c2ssc(=S)c2-c2ccccc2N1C(=O)CN1C(=O)CCC1=O ?
Solution: 37.1

###

Listed here are compounds together with their documented MIC.
Test system: Aspergillus versicolor
Assay: Antifungal activity against Aspergillus versicolor ATCC 11730 after 72 hrs by microdilution method
Type: functional
Conditions: ATCC 11730, 72 h
# value in ×10⁻² mM; strip the unit string

Exercise: Which MIC is reported for this compound? c1ccc(-c2ccc(C(c3ccccc3)n3ccnc3)cc2)cc1 (configuration not stated) [BIFONAZOLE]
Solution: 48

Exercise: Give the measured MIC of CCOc1ccc2c(c1)-c1c(ssc1=S)C(C)(C)N2C(=O)c1ccc(Cl)c([N+](=O)[O-])c1 .
Solution: 12.2

Exercise: What value of MIC has been recorded for this entry: CCOc1ccc2c(c1)-c1c(ssc1=S)C(C)(C)N2
Solution: 5.9

Exercise: # get_value(readout='MIC', item= COc1cc2c(c([N+](=O)[O-])c1)NC(C)(C)c1ssc(=S)c1-2 )
Solution: 4.41

Exercise: Given the compound COc1ccc2c(c1)-c1c(ssc1=S)C(C)(C)N2C(=O)CSc1nc2ccccc2s1 , what is its reported MIC?
Solution: 1.59

Exercise: Entry under review: CC1(C)c2ssc(=S)c2-c2ccccc2N1C(=O)CN1C(=O)CCC1=O . Reported MIC?
Solution: 14.8

###

Let's look at some compounds and their measured MIC.
Test system: Penicillium ochrochloron
Assay: Antifungal activity against Penicillium ochrochloron ATCC 9112 after 72 hrs by microdilution technique
Assay type: functional
Settings: ATCC 9112, 72 h
Mention the unit after the number when you answer.

CC(=O)N1CCN(c2ccc(OCC3COC(Cn4ccnc4)(c4ccc(Cl)cc4Cl)O3)cc2)CC1 (centres undefined) : 38 ×10⁻² mM
CC1(C)c2ssc(=S)c2-c2cccc3c2N1C(=O)/C3=N/NC(N)=S : 3.82 ×10⁻² mM

Exercise: Look up MIC: Cc1ccc2c(c1)-c1c(ssc1=S)C(C)(C)N2C(=O)c1cccnc1
Solution: 7.8 ×10⁻² mM

Exercise: Fill in: MIC of COc1cc2c3c(c1)-c1c(ssc1=S)C(C)(C)N3C(=O)/C2=C1\SC(=S)NC1=O is ___
Solution: 3.23 ×10⁻² mM
